Target: PDGFR beta (Homo sapiens, UniProt P09619)
Construct: endogenous in cells; host or cells: HS27 human fibroblast cell line
Sequence (P09619 33-1106): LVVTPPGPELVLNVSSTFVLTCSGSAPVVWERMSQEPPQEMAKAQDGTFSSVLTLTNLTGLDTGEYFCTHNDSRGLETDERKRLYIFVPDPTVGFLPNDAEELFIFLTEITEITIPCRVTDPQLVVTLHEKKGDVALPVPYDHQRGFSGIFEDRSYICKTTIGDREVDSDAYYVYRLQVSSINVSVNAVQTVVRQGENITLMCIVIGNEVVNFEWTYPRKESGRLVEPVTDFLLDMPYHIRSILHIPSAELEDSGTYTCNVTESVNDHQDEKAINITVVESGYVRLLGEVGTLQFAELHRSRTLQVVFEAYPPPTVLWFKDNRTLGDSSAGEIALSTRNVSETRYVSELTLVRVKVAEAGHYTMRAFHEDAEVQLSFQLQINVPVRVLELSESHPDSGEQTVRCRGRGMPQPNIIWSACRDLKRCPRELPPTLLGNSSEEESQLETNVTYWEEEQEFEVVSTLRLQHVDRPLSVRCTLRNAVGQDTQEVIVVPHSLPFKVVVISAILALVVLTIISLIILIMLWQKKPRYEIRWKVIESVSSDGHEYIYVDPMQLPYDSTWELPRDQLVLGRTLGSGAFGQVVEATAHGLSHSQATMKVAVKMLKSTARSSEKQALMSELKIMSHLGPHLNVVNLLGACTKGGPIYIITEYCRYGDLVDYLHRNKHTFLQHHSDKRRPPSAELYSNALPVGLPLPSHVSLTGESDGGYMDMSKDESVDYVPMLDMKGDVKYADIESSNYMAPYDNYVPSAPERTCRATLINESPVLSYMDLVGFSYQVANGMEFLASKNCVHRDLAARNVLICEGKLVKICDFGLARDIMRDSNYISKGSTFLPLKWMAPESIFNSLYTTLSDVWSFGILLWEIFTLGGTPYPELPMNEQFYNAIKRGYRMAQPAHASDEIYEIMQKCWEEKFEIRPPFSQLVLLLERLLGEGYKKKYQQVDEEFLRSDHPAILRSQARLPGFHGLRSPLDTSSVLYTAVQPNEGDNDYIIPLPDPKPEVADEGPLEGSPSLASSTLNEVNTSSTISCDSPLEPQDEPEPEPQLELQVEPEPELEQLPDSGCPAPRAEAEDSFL
Experiment: Phospho PDGFR LICOR Cell Assay (Example B)
Type: cell-based
Conditions: averaged IC50; PDGFR beta phosphorylation in HS27 human fibroblast cell line, PDGF-BB stimulation 10 minutes, normalized to total ERK
Method: Compounds were screened for inhibition of PDGFR beta phosphorylation in the HS27 human fibroblast cell line. Cells were seeded into a 96 well tissue culture plate, then incubated overnight in a 37° C./5% CO2 incubator. The following day, cells were treated for one hour with test compound dilutions. […] Cells were then washed with PBS and analyzed for fluorescence at both wavelengths using the Odyssey Infrared Imaging System (LI-COR Biosciences). […]
measured.parameter: IC50 (nM)
Give just the number in nM; leave the unit off.

Solved cases below.
COCCOc1ccn2c(C(=O)Nc3cccc4c3cnn4CCc3ccccc3)cnc2c1 | 9
O=C(Nc1cccc2c1cnn2Cc1ccccc1)c1cnc2cc(OCCN3CCOCC3)ccn12 | 5
Cc1cc(Cn2ncc3c(NC(=O)c4cnc5cc(OCCN6CCN(C)CC6)ccn45)cccc32)nn1C(C)C | 1.3
Cc1nn(Cc2cccc(C3CC3)n2)c2cccc(NC(=O)c3cnc4cc(OCCN5CCN(C(C)C)CC5)ccn34)c12 | 103
COCCOc1ccn2c(C(=O)Nc3cccc4c3cnn4Cc3cccc(OC)c3)cnc2c1 | 2.5
COCCOc1ccn2c(C(=O)Nc3cccc4c3cnn4Cc3ccc(OC)cc3)cnc2c1 | 9.3

Next:
Problem: Please report the recorded IC50 for COCCOc1ccn2c(C(=O)Nc3cccc4c3cnn4CC3CCOCC3)cnc2c1 .
Result: 289
